target_of_assay: Voltage-gated potassium channel subunit beta-2 (Rattus norvegicus) (UniProt P62483)
Sequence (P62483 whole entry, looked up): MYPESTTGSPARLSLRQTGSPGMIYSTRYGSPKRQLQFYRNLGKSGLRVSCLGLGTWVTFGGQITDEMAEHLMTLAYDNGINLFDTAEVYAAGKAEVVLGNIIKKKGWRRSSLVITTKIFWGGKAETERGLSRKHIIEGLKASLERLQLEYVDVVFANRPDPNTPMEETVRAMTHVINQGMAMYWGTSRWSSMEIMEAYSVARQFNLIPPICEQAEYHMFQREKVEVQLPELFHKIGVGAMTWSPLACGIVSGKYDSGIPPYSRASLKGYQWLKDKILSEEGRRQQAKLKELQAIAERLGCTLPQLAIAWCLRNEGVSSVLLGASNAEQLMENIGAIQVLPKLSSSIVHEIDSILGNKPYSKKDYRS
assay_procedure: KvBeta enzyme negative modulators, primary screen, biochemical, NADPH fluorescence (AID 622);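 further: slope of raw intensity against log time taken from 70 to 1610 s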
run_conditions: recombinant KvBeta, 4-cyanobenzaldehyde reduction, at 10 µM, stronger effect = higher value
The source made the active and inactive calls.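 How the source made its calls: active means fluorescence slope higher than the sample average by over 3 SD (cut at about -0.22 in these data, passing the limit was not always enough); inactive means the rest.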
recorded_metric: fluorescence slope

Sample answers from the record:
[
  {
    "molecule": "CCOCCN(C(=O)COC)c1cccc(OC)c1",
    "target_of_assay": "Voltage-gated potassium channel subunit beta-2 (Rattus norvegicus) (UniProt P62483)",
    "fluorescence slope": "-0.321 (inactive)"
  },
  {
    "molecule": "Cc1ccc2[nH]c3c(N4CCOCC4)ncnc3c2c1",
    "target_of_assay": "Voltage-gated potassium channel subunit beta-2 (Rattus norvegicus) (UniProt P62483)",
    "fluorescence slope": "-0.16 (inactive)"
  },
  {
    "molecule": "S=c1[nH]nc(-c2ccco2)n1Cc1ccccc1",
    "target_of_assay": "Voltage-gated potassium channel subunit beta-2 (Rattus norvegicus) (UniProt P62483)",
    "fluorescence slope": "-0.477 (inactive)"
  },
  {
    "molecule": "O=C(c1coc(=O)c(Br)c1)N1CCCc2ccccc21",
    "target_of_assay": "Voltage-gated potassium channel subunit beta-2 (Rattus norvegicus) (UniProt P62483)",
    "fluorescence slope": "-0.437 (inactive)"
  }
]

Query: Report fluorescence slope on Voltage-gated potassium channel subunit beta-2 (Rattus norvegicus) (UniProt P62483) for this entry: CC(C)OC(=O)c1sc2nc3c(cc2c1N)C(=O)CCC3
Reply: -0.403 (inactive)

Query: Please report fluorescence slope with Voltage-gated potassium channel subunit beta-2 (Rattus norvegicus) (UniProt P62483) for item COc1cc(C2C(C(=O)c3ccc(C)o3)=C(O)C(=O)N2c2cc(C)on2)cc(OC)c1OC (configuration not stated) .
Reply: -0.507 (inactive)

Query: Look up and report measured fluorescence slope (Voltage-gated potassium channel subunit beta-2 (Rattus norvegicus) (UniProt P62483)) for the following molecule: Cc1ccc(C#N)c(SCc2cc3c(cc2Cl)OCO3)n1
Reply: -0.515 (inactive)

====

Entries and their measured inhibition follow.
target_of_assay: Dual specificity protein phosphatase 6 (Homo sapiens) (UniProt Q16828)
Sequence (Q16828 whole entry, looked up): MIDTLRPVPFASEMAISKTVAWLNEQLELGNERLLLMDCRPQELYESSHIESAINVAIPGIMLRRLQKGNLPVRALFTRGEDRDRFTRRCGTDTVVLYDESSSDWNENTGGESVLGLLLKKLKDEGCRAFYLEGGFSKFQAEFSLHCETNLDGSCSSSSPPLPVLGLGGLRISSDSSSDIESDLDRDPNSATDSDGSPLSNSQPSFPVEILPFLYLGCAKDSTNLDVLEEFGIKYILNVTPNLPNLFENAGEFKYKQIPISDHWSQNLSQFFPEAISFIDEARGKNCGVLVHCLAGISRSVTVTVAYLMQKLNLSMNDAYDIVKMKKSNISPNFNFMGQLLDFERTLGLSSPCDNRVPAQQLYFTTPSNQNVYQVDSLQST
assay_procedure: DUSP6 inhibitors restoring Erk phosphorylation by chemical complementation, primary imaging in DUSP6-transfected HeLa (AID 609);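 on inhibition: phospho-Erk level distribution per well compared with pooled transfected vehicle control wells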
run_conditions: HeLa MKP-3 transfected, phospho-Erk imaging KS statistic; at 10 µM; stronger effect = higher value; cells stimulated with TPA for 15 min
Provide only the numeric value, understood in %.

Query: State, in one line, measured inhibition of COCCOCCOCCC(=O)NC1CC2CCC1(C)C2(C)C (stereo unspecified)
Reply: 6.51

Query: Give inhibition for O=c1[nH]c(CN2CCCCC2)nc2c1C1(CCCC1)Cc1ccccc1-2
Reply: -1.12

Query: Look up inhibition of CCO/C(C)=N/n1c2nc3ccccc3nc2c2c(=O)n(CC(C)C)c(C)nc21 and report it.
Reply: 14

Query: Give inhibition for the following molecule: CC1(C)CC(=O)c2cc(C(=O)N3CCCC(C)(C)C3)c(=O)n(-c3ccccc3)c2C1
Reply: 7.48

Query: Please indicate inhibition recorded for CCCC1Cc2c(sc3ncnc(N)c23)CO1 (stereo unspecified)
Reply: -1.98

Query: Indicate its recorded inhibition; the molecule in question is CC(C)C1Cc2c(C#N)c(N)n(C)c(=S)c2CO1 (stereo unspecified)
Reply: -8.76

====

assay_procedure: DUSP6 inhibitors restoring Erk phosphorylation by chemical complementation, primary imaging in DUSP6-transfected HeLa (AID 609)
run_conditions: HeLa MKP-3 transfected, phospho-Erk imaging KS statistic; measured here: nuclear c-Myc green intensity z-score; at 10 µM; cells stimulated with TPA for 15 min
Where z-score equals or exceeds -0.4, the correct label is y; where it does not, the label is n.

Past entries and their recorded results:
[
  {
    "compound": "COc1ccccc1NC(=O)C1=C(C)NC(SCC(=O)c2ccc(C)cc2)=C(C#N)C1c1ccco1 (stereo unspecified)",
    "group": "n"
  },
  {
    "compound": "CCc1cccc(C)c1N(C(=O)Cn1c(=O)[nH]c2ccccc21)C(C)COC (stereo unspecified)",
    "group": "y"
  },
  {
    "compound": "COc1ccc(C2(CN(C(C)=O)C(C)=O)CCCC2)cc1OC",
    "group": "y"
  },
  {
    "compound": "O=c1c2ccccc2[nH]c(=S)n1CCN1CCC(=C(c2ccc(F)cc2)c2ccc(F)cc2)CC1",
    "group": "n"
  },
  {
    "compound": "N#CCc1nc2c3c4c(sc3ncn2n1)CCCC4",
    "group": "y"
  }
]

Would you kindly look at the next entry?
Query: Exam item: decide whether the reported z-score for Cc1ccc(C#N)c(SCc2cc3c(cc2Cl)OCO3)n1 is at least -0.4.
Reply: n

====

assay_procedure: DUSP6 inhibitors restoring Erk phosphorylation by chemical complementation, primary imaging in DUSP6-transfected HeLa (AID 609)
run_conditions: HeLa MKP-3 transfected, phospho-Erk imaging KS statistic; measured here: nuclear pErk red intensity z-score; at 10 µM; stronger effect = higher value; cells stimulated with TPA for 15 min
recorded_metric: z-score
Respond using a number only.

[
  {
    "compound": "Cc1ccc(C2/C(=C(/O)c3ccc(OC(C)C)cc3)C(=O)C(=O)N2CCN2CCOCC2)cc1 (stereo unspecified)",
    "z-score": 0.598
  },
  {
    "compound": "O=C(N(c1ccccc1)c1ccccc1)n1ccnc1",
    "z-score": 1.08
  }
]

Query: Provide one value: measured z-score of COc1cc(C)nc(Oc2ccc(OCCOc3ccc(C)cc3)nn2)n1
Reply: 0.972

Query: Tell me its z-score given COc1ccc(CCNC(=O)c2ccc(=O)[nH]n2)cc1OC as the entry.
Reply: -0.384

Query: Supply recorded z-score for CCN(CC)C(=O)c1ccc(O)c(OC)c1 here.
Reply: -0.513

Query: Return z-score for the following compound: Cc1nnc2n(-c3ccccc3)c(=O)c3c4c(sc3n12)CC(C)CC4 (stereo unspecified)
Reply: -0.493

====

Listed molecules paired with reported inhibition
assay_procedure: inhibitors of TNFa-induced NFkB p65 translocation, primary screen, imaging, HUVEC, MLSMR starter and 10KST1 sets (AID 438);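 further: compound added about 3h40 before a 20 min TNFalpha stimulation; signal is the nuclear over cytoplasmic p65 intensity ratio per well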
run_conditions: HUVEC TNFa-induced p65 nuclear translocation; at 2 µM, stronger effect = higher value, 0% TNFa-plus-vehicle, 100% no-TNFa wells
Field: numeric (%). Do not append units.

These solved cases illustrate the format of a correct answer.
[
  {
    "molecule": "CN1CCc2nc(SCC(=O)Nc3ccc(Cl)cc3)c(C#N)cc2C1",
    "inhibition / %": -14.3
  },
  {
    "molecule": "Cc1nc2sccn2c(=O)c1CCN1CCC(=C(c2ccccc2)c2ccc(F)cc2)CC1",
    "inhibition / %": -7.7
  },
  {
    "molecule": "Cc1cc(C)c(NC(=O)OCCN2CCOCC2)c(C)c1",
    "inhibition / %": -17.3
  },
  {
    "molecule": "CCOC(=O)CC(C#N)c1cn(C)c2ccccc12 (stereo not drawn)",
    "inhibition / %": -0.6
  },
  {
    "molecule": "CCOc1cccc(-c2nn3c(-c4ccccn4)nnc3s2)c1",
    "inhibition / %": -3.2
  }
]

Query: Query inhibition for N#CCCSc1nc(N2CCOCC2)c2c(c1C#N)CCCC2
Reply: -15.5

Query: Provide one value: measured inhibition of Cc1nc2oc(C(=O)c3ccc(Br)cc3)c(N)c2c2c1COC(C)(C)C2
Reply: -7.3

Query: Let me know recorded inhibition for COc1ccc(C2CC(C(F)(F)F)n3ncc(C(=O)NCC4CCCO4)c3N2)cc1OC (stereo not drawn) , thanks.
Reply: -1.8

Query: Name the recorded inhibition of the item CCOC(=O)CC(=O)CSc1nc(N)c(C#N)c(-c2ccc(F)cc2)c1C#N in your answer.
Reply: -5.7

Query: // fetch inhibition given entry CCN(CC)C(=O)c1sc2nc(-c3cccs3)cc(-c3cccs3)c2c1N
Reply: -1.7

Query: Quote inhibition reported for CSc1nc(N)nc(SCC(=O)CC(=O)OC(C)C)c1C#N please.
Reply: -7.1

Query: // fetch inhibition given entry COc1ccc(-c2cc(-c3ccccc3)n3ncnc3n2)cc1
Reply: 3.2

Query: Report inhibition, nothing else, for this molecule: Cc1cccc(COc2ccc(/C(O)=C3\C(=O)C(=O)N(CCN(C)C)C3c3ccncc3)cc2)c1 (stereo not drawn)
Reply: 3.2

Query: Hello, please tell me recorded inhibition for this one: CCO/C(C)=N/n1c2nc3ccccc3nc2c2c(=O)n(CC(C)C)c(C)nc21
Reply: 1.4

====

assay_procedure: inhibitors of mutant huntingtin aggregation, primary screen, imaging, exon1htt(103Q)mCFP cells, high-content imaging (AID 483);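 further: compound exposure lasted 3 days before fixation; percent of the per-plate median nuclei count of sample wells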
run_conditions: exon1htt(103Q)mCFP cell line, aggregate imaging, at 2 µM; measured here: cell count, toxicity
Below, each of the compounds is paired with its reported nuclei count value.
Lab book: enter the figure in %, no units written.

[
  {
    "compound": "CN1CCC(=C2c3ccccc3C=Cc3ccccc32)CC1",
    "nuclei count, %": 104
  }
]

Query: Give reported nuclei count value for CC(NC(=O)Nc1nccs1)(C(F)(F)F)C(F)(F)F
Reply: 108

Query: In one line, give reported nuclei count of the entry Nc1cccc(C(=O)O)c1 .
Reply: 59

Query: Identify measured nuclei count corresponding to Cc1c(CCC#N)c(N2CCN(C3CCCCC3)CC2)n2c(nc3ccccc32)c1C#N
Reply: 98.9

Query: Given the compound O=[N+]([O-])c1cccc2cn[nH]c12 , write its reported nuclei count.
Reply: 81.4

Query: Indicate the recorded nuclei count value for this compound: C=CCc1ccccc1OCC(O)CNC(C)C (centres undefined)
Reply: 89.9
